target under test: HIV-1 protease (Human immunodeficiency virus type 1 group M subtype B)
protocol description: biochemical
cond: Table I; Dose 0.123 μM; read-out: Protease % Inhib

{"compound": "CCC(Cc1ccccc1)c1cc(O)c(C(c2cccc(NS(=O)(=O)c3ccc([N+](=O)[O-])cc3)c2)C2CC2)c(=O)o1 (stereo not drawn)", "inhibition at 0.123 µM, %": 78.4}
{"compound": "COCCOCCOCCOc1ccc2c(O)c(C(c3cccc(NS(=O)(=O)c4cccc5cccnc45)c3)C3CC3)c(=O)oc2c1 (stereo not drawn)", "inhibition at 0.123 µM, %": 81.3}
{"compound": "N#Cc1ccc(S(=O)(=O)Cc2cccc(C(c3c(O)c4c(oc3=O)CCCCCC4)C3CC3)c2)cc1 (stereo not drawn)", "inhibition at 0.123 µM, %": 78.9}

###

target under test: HIV-1 protease (Human immunodeficiency virus type 1 group M subtype B)
protocol description: biochemical
cond: Table I; read-out: HIV Protease FITC Assay Ki
log10 of Ki by entry:
observable: log10 of Ki (log10 of the value in nM)

{"compound": "Cn1ccnc1S(=O)(=O)Cc1cccc(C(c2c(O)c3c(oc2=O)CCCCCC3)C2CC2)c1 (centres unmarked)", "log10 of Ki": 0.45}
{"compound": "CCCC1(CCC)CC(O)=C(C(CC)c2cccc(NS(=O)(=O)c3cn(C)cn3)c2)C(=O)O1 (centres unmarked) [Example 44]", "log10 of Ki": 0.26}
{"compound": "Cn1cnc(S(=O)(=O)Nc2cccc(C(C3=C(O)CC(CCc4ccc(F)cc4)(CCc4ccc(F)cc4)OC3=O)C(C)(C)C)c2)c1 (centres unmarked)", "log10 of Ki": 0.92}
{"compound": "CCC(C1=C(O)CC(CCC2CC2)(CCC2CC2)OC1=O)c1cccc(NS(=O)(=O)c2cn(C)cn2)c1 (centres unmarked)", "log10 of Ki": 0.23}
{"compound": "Cn1cnc(S(=O)(=O)Nc2cccc(C(C3=C(O)CC(CCc4ccccc4)(CCc4ccccc4)OC3=O)C3CC3)c2)c1 (centres unmarked)", "log10 of Ki": -0.10}
{"compound": "CCCC1(CCC)CC(O)=C(C(CC)c2cccc(NS(=O)(=O)c3cccc4cccnc34)c2)C(=O)O1 (single isomer, unassigned) [Example 54]", "log10 of Ki": 1.12}
{"compound": "CCCC1(CCC)CC(O)=C(C(c2cccc(NS(=O)(=O)c3ccc(C#N)cn3)c2)C(C)(C)C)C(=O)O1 (centres unmarked)", "log10 of Ki": 0.30}
{"compound": "CCCC1(CCc2ccccc2)CC(O)=C(C(c2cccc(NS(=O)(=O)c3cn(C)cn3)c2)C(C)(C)C)C(=O)O1 (centres unmarked)", "log10 of Ki": 0.08}
{"compound": "CCC(C1=C(O)CC(CC)(c2cccc(NS(=O)(=O)c3cn(C)cn3)c2)OC1=O)c1cccc(NS(=O)(=O)c2cn(C)cn2)c1 (centres unmarked)", "log10 of Ki": 0.67}
{"compound": "CCCC1(CCC)CC(O)=C(C(CC)c2cccc(NS(=O)(=O)c3ccc(C#N)cc3)c2)C(=O)O1 (centres unmarked)", "log10 of Ki": 0.47}
{"compound": "CC(C)(C)C(C1=C(O)CC(CCc2ccc(F)cc2)(CCc2ccc(F)cc2)OC1=O)c1cccc(NS(=O)(=O)c2ccc(C#N)cn2)c1 (centres unmarked)", "log10 of Ki": 0.95}
{"compound": "CCCC1CCCCCc2c1oc(=O)c(C(c1cccc(NS(=O)(=O)c3ccccc3)c1)C1CC1)c2O (centres unmarked)", "log10 of Ki": 1.18}
{"compound": "CCC(CCOCCOC)c1cc(O)c(C(c2cccc(NS(=O)(=O)c3ccc(C#N)cc3)c2)C2CC2)c(=O)o1 (centres unmarked)", "log10 of Ki": 0.52}
{"compound": "CN(c1cccc(C(c2c(O)c3c(oc2=O)CCCCCC3)C2CC2)c1)S(=O)(=O)c1ccc(C#N)cc1 (centres unmarked)", "log10 of Ki": 0.86}
{"compound": "CCCC1(CCC)CC(O)=C(C(CC)c2cccc(NS(=O)(=O)c3cn(C)cn3)c2)C(=O)O1 (single isomer, unassigned) [Example 55]", "log10 of Ki": 0.23}
{"compound": "CCCC1(CCC)CC(O)=C(C(CC)c2cccc(NS(=O)(=O)c3cccc4cccnc34)c2)C(=O)O1 (single isomer, unassigned) [Example 52]", "log10 of Ki": 0.15}
{"compound": "CCC(C1=C(O)CC(CCc2ccc(F)cc2)(CCc2ccc(F)cc2)OC1=O)c1cccc(NS(=O)(=O)c2ccc(C#N)cn2)c1 (centres unmarked)", "log10 of Ki": 0.34}
{"compound": "CC[C@@H](Cc1ccccc1)c1cc(O)c(C(c2cccc(NS(=O)(=O)c3cn(C)cn3)c2)C2CC2)c(=O)o1 (single isomer, unassigned) [Example 140]", "log10 of Ki": 0.16}
{"compound": "CCCC1(CCC)CC(O)=C(C(c2cccc(NS(=O)(=O)c3cn(C)cn3)c2)C2CC2)C(=O)O1 (centres unmarked) [Example 48]", "log10 of Ki": -0.28}
{"compound": "CC[C@H](Cc1ccccc1)c1cc(O)c(C(c2cccc(NS(=O)(=O)c3ccccn3)c2)C2CC2)c(=O)o1 (single isomer, unassigned) [Example 142]", "log10 of Ki": 0.20}

The measured values listed here are drawn from patent US6169181A.
